System: Vero
ASSAY SUMMARY: Cytotoxicity against african green monkey Vero cells by MTT assay
Type: cell-based
TEST PARAMETERS: Chlorocebus sabaeus
MEASUREMENT NAME: pIC50
One number for each entry, as −log10 of the molar value.

Completed entries (count: 4):
[
  {
    "COMPOUND": "C=CCOc1cc(OC)c(C(=O)/C=C/c2ccc3c(c2)OCO3)c(OCC=C)c1",
    "pIC50": 4.13
  },
  {
    "COMPOUND": "C=CCOc1cc(OC)c(C(=O)/C=C/c2ccc(O)cc2)c(OCC=C)c1",
    "pIC50": 4.12
  },
  {
    "COMPOUND": "C=CCOc1cc(OC)c(C(=O)/C=C/c2ccccc2)c(OCC=C)c1",
    "pIC50": 4.77
  },
  {
    "COMPOUND": "CC1CS(=O)(=O)CCN1/N=C/c1ccc([N+](=O)[O-])o1 (stereo not given) [NIFURTIMOX]",
    "pIC50": 4.10
  }
]

// next entry
Enquiry: Requested read-out: pIC50. Entry: C=CCOc1cc(OC)c(C(=O)/C=C/c2ccc([N+](=O)[O-])cc2)c(OCC=C)c1
Return: 4.90

* * *

Consider the following compounds; for each one, report its pIC50.
Test system: Trypanosoma cruzi
ASSAY SUMMARY: Antitrypanosomal activity against Trypanosoma cruzi Tulahuen C4 in african green monkey Vero cells after 120 hrs
Format: functional, organism-based
Give bare numbers, as −log10 of the molar value.

[
  {
    "COMPOUND": "C=CCOc1cc(OC)c(C(=O)/C=C/c2cc(OC)c(OC)c(OC)c2)c(OCC=C)c1",
    "pIC50": 5.47
  },
  {
    "COMPOUND": "CC1CS(=O)(=O)CCN1/N=C/c1ccc([N+](=O)[O-])o1 (stereo not given)",
    "pIC50": 6.28
  },
  {
    "COMPOUND": "C=CCOc1cc(OC)c(C(=O)/C=C/c2ccc(Cl)cc2)c(OCC=C)c1",
    "pIC50": 5.07
  },
  {
    "COMPOUND": "C=CCOc1cc(OC)c(C(=O)/C=C/c2ccc(F)cc2)c(OCC=C)c1",
    "pIC50": 4.84
  },
  {
    "COMPOUND": "C=CCOc1cc(OC)c(C(=O)/C=C/c2cccc(OC)c2)c(OCC=C)c1",
    "pIC50": 4.85
  }
]

// next entry
Enquiry: Requested read-out: pIC50. Entry: C=CCOc1cc(OC)c(C(=O)/C=C/c2ccccc2Br)c(OCC=C)c1
Return: 4.86

* * *

Consider the following molecules; for each one, report its GI50 at 48 h.
ASSAY SUMMARY: Cytotoxicity against BALB mouse 3T3 cells after 48 hrs
Type: cell-based
TEST PARAMETERS: BALB 3T3 cells
Answers are plain numbers, in µM.

Completed entries (count: 6):
[
  {
    "SMI": "COc1cc(O)cc(O)c1C(=O)/C=C/c1ccc2c(c1)OCO2",
    "UNIT NAME": "µM",
    "GI50 at 48 h": 5.1
  },
  {
    "SMI": "C=CCOc1cc(OC)c(C(=O)/C=C/c2ccc3c(c2)OCO3)c(OCC=C)c1",
    "UNIT NAME": "µM",
    "GI50 at 48 h": 31.7
  },
  {
    "SMI": "COc1ccc(/C=C/C(=O)c2c(O)cc(OC)cc2OC)cc1",
    "UNIT NAME": "µM",
    "GI50 at 48 h": 17.2
  },
  {
    "SMI": "COc1ccc(/C=C/C(=O)c2c(O)cc(O)cc2OC)cc1",
    "UNIT NAME": "µM",
    "GI50 at 48 h": 6.7
  },
  {
    "SMI": "COc1cc(O)c(C(=O)CCc2ccc3c(c2)OCO3)c(OC)c1",
    "UNIT NAME": "µM",
    "GI50 at 48 h": 21.5
  },
  {
    "SMI": "C=CCOc1cc(OC)c(C(=O)/C=C/c2ccc(OC)cc2)c(OCC=C)c1",
    "UNIT NAME": "µM",
    "GI50 at 48 h": 41
  }
]

// next entry
Enquiry: Requested read-out: GI50 at 48 h. Entry: COc1cc(O)c(C(=O)/C=C/c2ccc3c(c2)OCO3)c(OC)c1
Return: 39
